Target: galectin-3 (Homo sapiens, UniProt P17931)
Sequence (P17931 whole entry): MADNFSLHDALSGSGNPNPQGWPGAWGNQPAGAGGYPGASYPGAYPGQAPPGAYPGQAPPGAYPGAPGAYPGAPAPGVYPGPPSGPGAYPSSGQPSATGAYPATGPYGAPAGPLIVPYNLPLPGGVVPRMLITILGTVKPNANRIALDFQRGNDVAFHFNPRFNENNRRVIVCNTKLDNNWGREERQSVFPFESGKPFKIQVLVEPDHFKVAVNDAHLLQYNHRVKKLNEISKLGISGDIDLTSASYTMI
Assay: Fluorescence anisotropy assay, galectin-3
Type: binding
Details: about 1 μM galectin, 0.1 or 0.02 μM probe; NI = no inhibition at highest concentration tested; read-out: Calculated Kd, Gal-3
# Kd per record follows
Only the number, expressed in µM, is required.

Example cases with answers are listed next.
molecule="CO[C@@H]1O[C@H](CO)[C@@H](O[C@@H]2O[C@H](CO)[C@H](O)[C@H](O)[C@H]2O)[C@H](O)[C@H]1NC(C)=O [Methyl β-LacNAc, reference compound]" quantitative_readout=52
molecule="OC[C@H]1O[C@@H](OC[C@H]2O[C@@H](OC[C@H]3OC(O)[C@H](O)[C@@H](O)[C@H]3O)[C@H](O)[C@@H](O[C@@H]3O[C@H](CO)[C@H](O)[C@H](O)[C@H]3O)[C@H]2O)[C@H](O)[C@@H](O)[C@H]1O (some centres unmarked)" quantitative_readout=80
molecule="CO[C@@H]1O[C@H](CO)[C@@H](O[C@@H]2O[C@H](CO)[C@H](O)[C@H](O)[C@H]2O)[C@H](O)[C@H]1O [Methyl β-Lac, reference compound]" quantitative_readout=110

# evaluate next
According to the records, this molecule OC[C@H]1O[C@@H](OC[C@H]2OC(O)[C@H](O)[C@@H](O[C@@H]3O[C@H](CO)[C@H](O)[C@H](O)[C@H]3O)[C@H]2O)[C@H](O)[C@@H](O)[C@H]1O (some centres unmarked) displays Kd of 130

====

Quick note: these are Kd numbers for system: galectin-1 (Homo sapiens, UniProt P09382)
Sequence (P09382 whole entry, species assumed): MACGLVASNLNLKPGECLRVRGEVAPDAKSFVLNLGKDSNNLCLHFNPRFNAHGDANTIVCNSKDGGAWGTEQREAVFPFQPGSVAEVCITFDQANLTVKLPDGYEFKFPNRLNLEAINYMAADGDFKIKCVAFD
Express your answer in µM, writing the number without its unit.

compound="OC[C@H]1O[C@@H](O[C@H]2[C@@H](O)[C@@H](CO)O[C@@H](OC[C@H]3OC(O)[C@H](O)[C@@H](O)[C@H]3O)[C@@H]2O)[C@H](O)[C@@H](O)[C@H]1O (some centres unmarked)" target_of_assay="galectin-1 (Homo sapiens, UniProt P09382)" parameter_measured=Kd unit_abbreviation=µM quantitative_readout=1200
compound="CO[C@@H]1O[C@H](CO)[C@@H](O[C@@H]2O[C@H](CO)[C@H](O)[C@H](O)[C@H]2O)[C@H](O)[C@H]1NC(C)=O [Methyl β-LacNAc, reference compound]" target_of_assay="galectin-1 (Homo sapiens, UniProt P09382)" parameter_measured=Kd unit_abbreviation=µM quantitative_readout=84

Please look at the following compound next.
Item CO[C@@H]1O[C@H](CO)[C@@H](O[C@@H]2O[C@H](CO)[C@H](O)[C@H](O)[C@H]2O)[C@H](O)[C@H]1O [Methyl β-Lac, reference compound] was tested on galectin-1 (Homo sapiens, UniProt P09382); the reported Kd is 170

====

Listed here: items and their measured Kd.
Molecular target: galectin-3 (Homo sapiens, UniProt P17931)
Assay: Fluorescence anisotropy assay, galectin-3
Type: binding
Details: about 1 μM galectin, 0.1 or 0.02 μM probe; NI = no inhibition at highest concentration tested; read-out: Calculated Kd, Gal-3
Answer in µM, number only, no unit symbol.

Use these answered entries as a reference point.
compound="OC[C@H]1O[C@@H](O[C@H]2[C@@H](O)[C@@H](CO)O[C@@H](OC[C@H]3OC(O)[C@H](O)[C@@H](O)[C@H]3O)[C@@H]2O)[C@H](O)[C@@H](O)[C@H]1O (stereo partly shown)" target_of_assay="galectin-3 (Homo sapiens, UniProt P17931)" unit_abbreviation=µM quantitative_readout=110
compound="OC[C@H]1O[C@H](OC[C@H]2OC(O)[C@@H](O)[C@@H](O)[C@@H]2O[C@@H]2O[C@H](CO)[C@@H](O[C@@H]3O[C@H](CO)[C@@H](O)[C@H](O)[C@@H]3O)[C@H](O)[C@@H]2O)[C@H](O)[C@@H](O)[C@H]1O (stereo partly shown)" target_of_assay="galectin-3 (Homo sapiens, UniProt P17931)" unit_abbreviation=µM quantitative_readout=3600
compound="OC[C@H]1O[C@H](OC[C@H]2O[C@@H](O[C@H]3[C@H](O)[C@H](O)[C@H](O[C@H]4[C@H](O)[C@H](O)[C@H](O[C@H]5[C@H](O)[C@H](O)C(O)O[C@@H]5CO)O[C@@H]4CO)O[C@@H]3CO[C@H]3O[C@H](CO)[C@H](O)[C@H](O)[C@H]3O)[C@@H](O)[C@@H](O)[C@@H]2O[C@@H]2O[C@H](CO)[C@@H](O)[C@H](O)[C@@H]2O)[C@H](O)[C@@H](O)[C@H]1O (stereo partly shown)" target_of_assay="galectin-3 (Homo sapiens, UniProt P17931)" unit_abbreviation=µM quantitative_readout=1500

Please turn your attention to the following entry.
Just so you know, measured Kd for OC[C@H]1O[C@@H](O[C@H]2[C@@H](O)[C@@H](CO)OC(O)[C@@H]2O)[C@H](O)[C@@H](O)[C@H]1O (stereo partly shown) came out at 180
